Data provenance: ChEMBL document CHEMBL5661979

Molecular target: Phosphorylase b kinase gamma catalytic chain, liver/testis isoform (Homo sapiens, UniProt P15735)
Sequence (P15735 whole entry): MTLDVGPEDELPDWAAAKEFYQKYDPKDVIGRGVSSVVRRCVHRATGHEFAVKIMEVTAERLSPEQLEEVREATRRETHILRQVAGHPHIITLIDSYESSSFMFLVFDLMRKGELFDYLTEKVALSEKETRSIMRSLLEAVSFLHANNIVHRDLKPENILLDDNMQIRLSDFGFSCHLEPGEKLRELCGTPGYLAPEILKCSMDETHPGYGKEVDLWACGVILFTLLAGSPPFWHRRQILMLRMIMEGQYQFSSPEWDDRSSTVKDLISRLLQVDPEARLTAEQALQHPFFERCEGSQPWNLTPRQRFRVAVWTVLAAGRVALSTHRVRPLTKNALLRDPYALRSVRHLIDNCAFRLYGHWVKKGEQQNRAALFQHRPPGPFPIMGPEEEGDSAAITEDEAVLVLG
Assay: Inhibition of PHKg2 in human HeLa cells lysate pre incubated for 15 mins followed by ATP acyl phosphate probe addition and measured after 10 mins by LC-MS/MS analysis
Format: subcellular
pIC50: −log10 of the molar value.
measured-property: pIC50

{"mol-smiles": "CCOc1cc(N2CCC(O)CC2)ccc1Nc1ncc2c(n1)N(C)c1ccccc1C(=O)N2C", "result": "< 4.30"}

----------
biological target: Dual specificity mitogen-activated protein kinase kinase 1 (Homo sapiens); experiment: Inhibition of MAP2K1 in human HeLa cells lysate pre incubated for 15 mins followed by ADP acyl phosphate probe addition and measured after 10 mins by LC-MS/MS analysis; format: subcellular
Sequence (Q02750 whole entry): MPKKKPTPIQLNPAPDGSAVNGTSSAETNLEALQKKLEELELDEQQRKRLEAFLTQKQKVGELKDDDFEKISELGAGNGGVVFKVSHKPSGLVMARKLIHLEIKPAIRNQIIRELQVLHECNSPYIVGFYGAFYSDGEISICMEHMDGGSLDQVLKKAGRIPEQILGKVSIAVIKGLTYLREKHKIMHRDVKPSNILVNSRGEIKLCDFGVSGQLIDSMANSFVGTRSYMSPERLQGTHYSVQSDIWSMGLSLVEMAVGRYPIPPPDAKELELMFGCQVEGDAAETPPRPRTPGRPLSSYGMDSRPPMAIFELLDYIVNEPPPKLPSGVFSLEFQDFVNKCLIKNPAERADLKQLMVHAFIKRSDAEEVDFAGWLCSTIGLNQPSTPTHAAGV

{"mol-smiles": "CCOc1cc(N2CCC(O)CC2)ccc1Nc1ncc2c(n1)N(C)c1ccccc1C(=O)N2C", "IC50": "> 50 µM"}

----------
target: Serine/threonine-protein kinase D3 (Homo sapiens, UniProt O94806); assay: Inhibition of PKD3 in human HeLa cells lysate pre incubated for 15 mins followed by ADP acyl phosphate probe addition and measured after 10 mins by LC-MS/MS analysis
Sequence (O94806 whole entry): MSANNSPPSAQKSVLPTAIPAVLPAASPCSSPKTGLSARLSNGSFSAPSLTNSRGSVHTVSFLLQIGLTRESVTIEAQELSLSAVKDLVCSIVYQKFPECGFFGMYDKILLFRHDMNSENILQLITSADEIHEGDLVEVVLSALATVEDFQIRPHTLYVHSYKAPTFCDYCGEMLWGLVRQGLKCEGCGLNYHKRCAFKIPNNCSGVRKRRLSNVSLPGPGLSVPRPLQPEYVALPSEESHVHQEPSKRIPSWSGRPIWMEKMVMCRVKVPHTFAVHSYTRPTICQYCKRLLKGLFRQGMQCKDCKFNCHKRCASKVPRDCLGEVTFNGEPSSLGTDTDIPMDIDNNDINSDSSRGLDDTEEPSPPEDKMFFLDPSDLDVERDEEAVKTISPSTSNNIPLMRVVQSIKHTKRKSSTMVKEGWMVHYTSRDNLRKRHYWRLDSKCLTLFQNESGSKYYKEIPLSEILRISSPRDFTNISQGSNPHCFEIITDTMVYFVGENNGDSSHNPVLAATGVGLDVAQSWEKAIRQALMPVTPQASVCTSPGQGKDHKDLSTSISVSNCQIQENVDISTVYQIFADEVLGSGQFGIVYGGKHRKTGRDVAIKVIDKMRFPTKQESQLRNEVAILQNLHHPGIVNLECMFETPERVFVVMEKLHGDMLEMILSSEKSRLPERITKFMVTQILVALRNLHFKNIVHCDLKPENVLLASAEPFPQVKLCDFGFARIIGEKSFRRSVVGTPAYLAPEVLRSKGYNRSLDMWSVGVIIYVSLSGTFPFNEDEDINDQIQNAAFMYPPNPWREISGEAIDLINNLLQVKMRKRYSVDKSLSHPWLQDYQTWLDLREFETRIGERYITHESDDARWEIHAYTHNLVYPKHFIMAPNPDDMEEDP

{"mol-smiles": "CCOc1cc(N2CCC(O)CC2)ccc1Nc1ncc2c(n1)N(C)c1ccccc1C(=O)N2C", "IC50": "> 50 µM"}

----------
Biological target: Phosphatidylinositol 5-phosphate 4-kinase type-2 alpha (Homo sapiens)
Sequence (P48426 whole entry): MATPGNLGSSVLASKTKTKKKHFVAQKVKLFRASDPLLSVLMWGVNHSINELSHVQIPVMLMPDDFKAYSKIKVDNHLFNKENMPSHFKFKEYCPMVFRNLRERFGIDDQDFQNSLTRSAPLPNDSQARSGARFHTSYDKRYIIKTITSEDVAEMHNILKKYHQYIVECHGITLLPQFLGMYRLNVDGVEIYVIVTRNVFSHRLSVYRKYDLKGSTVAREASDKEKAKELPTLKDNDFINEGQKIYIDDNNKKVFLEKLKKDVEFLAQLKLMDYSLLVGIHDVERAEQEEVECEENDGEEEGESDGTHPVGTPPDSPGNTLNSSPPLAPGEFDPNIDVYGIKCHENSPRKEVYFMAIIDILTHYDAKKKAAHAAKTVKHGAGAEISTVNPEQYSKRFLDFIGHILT
Experiment: Inhibition of PIP5K2A LIP1 site in human HeLa cells lysate pre incubated for 15 mins followed by ADP acyl phosphate probe addition and measured after 10 mins by LC-MS/MS analysis
Assay type: subcellular
measured-property: IC50

{"mol-smiles": "CCOc1cc(N2CCC(O)CC2)ccc1Nc1ncc2c(n1)N(C)c1ccccc1C(=O)N2C", "measured-property": "IC50", "result": "> 50 µM"}

----------
biological target: Serine/threonine-protein kinase 4 (Homo sapiens, UniProt Q13043); assay: Inhibition of MST1 in human HeLa cells lysate pre incubated for 15 mins followed by ADP acyl phosphate probe addition and measured after 10 mins by LC-MS/MS analysis; type: subcellular
Sequence (Q13043 whole entry): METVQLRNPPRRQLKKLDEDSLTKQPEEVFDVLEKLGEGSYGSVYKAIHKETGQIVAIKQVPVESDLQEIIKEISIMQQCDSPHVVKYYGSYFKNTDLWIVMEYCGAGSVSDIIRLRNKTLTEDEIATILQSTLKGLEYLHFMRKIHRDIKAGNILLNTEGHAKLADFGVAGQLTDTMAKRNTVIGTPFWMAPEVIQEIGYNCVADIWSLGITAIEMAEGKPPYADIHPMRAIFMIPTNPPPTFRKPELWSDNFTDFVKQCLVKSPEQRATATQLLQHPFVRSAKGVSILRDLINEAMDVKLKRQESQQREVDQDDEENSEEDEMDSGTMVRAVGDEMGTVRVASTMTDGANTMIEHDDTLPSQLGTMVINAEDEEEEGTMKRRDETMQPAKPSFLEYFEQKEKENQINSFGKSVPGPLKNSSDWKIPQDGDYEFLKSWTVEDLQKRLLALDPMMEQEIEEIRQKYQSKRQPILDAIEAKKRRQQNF
pIC50: −log10 of the molar value.

{"mol-smiles": "CCOc1cc(N2CCC(O)CC2)ccc1Nc1ncc2c(n1)N(C)c1ccccc1C(=O)N2C", "pIC50": "< 4.30"}

----------
target: Glycogen synthase kinase-3 beta (Homo sapiens); experiment: Inhibition of GSK3B isoform 2 in human HeLa cells lysate pre incubated for 15 mins followed by ADP acyl phosphate probe addition and measured after 10 mins by LC-MS/MS analysis; type: subcellular
Sequence (P49841 whole entry, canonical isoform): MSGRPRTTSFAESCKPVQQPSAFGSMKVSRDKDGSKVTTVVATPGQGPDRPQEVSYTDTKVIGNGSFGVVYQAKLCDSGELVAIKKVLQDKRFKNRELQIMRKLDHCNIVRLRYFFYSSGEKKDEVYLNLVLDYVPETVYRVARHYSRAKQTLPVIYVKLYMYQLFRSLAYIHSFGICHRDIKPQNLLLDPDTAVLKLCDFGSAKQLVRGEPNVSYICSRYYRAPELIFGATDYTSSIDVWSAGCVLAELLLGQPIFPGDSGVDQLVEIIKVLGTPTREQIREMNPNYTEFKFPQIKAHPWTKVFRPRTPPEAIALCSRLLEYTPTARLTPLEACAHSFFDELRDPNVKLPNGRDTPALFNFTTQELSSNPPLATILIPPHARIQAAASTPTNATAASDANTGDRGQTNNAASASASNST

{"mol-smiles": "CCOc1cc(N2CCC(O)CC2)ccc1Nc1ncc2c(n1)N(C)c1ccccc1C(=O)N2C", "IC50": "> 50 µM"}

----------
experiment: Inhibition of CK1g1/g2/g3 in human HeLa cells lysate pre incubated for 15 mins followed by ADP acyl phosphate probe addition and measured after 10 mins by LC-MS/MS analysis; assay type: subcellular

{"mol-smiles": "CCOc1cc(N2CCC(O)CC2)ccc1Nc1ncc2c(n1)N(C)c1ccccc1C(=O)N2C", "IC50": "> 50 µM"}
